target: M. tuberculosis MmpL3 (MtMmpL3) (Mycobacterium tuberculosis, UniProt P9WJV5); experiment: Surface plasmon resonance binding to MmpL3; conditions: two-state model
Sequence (P9WJV5 whole entry): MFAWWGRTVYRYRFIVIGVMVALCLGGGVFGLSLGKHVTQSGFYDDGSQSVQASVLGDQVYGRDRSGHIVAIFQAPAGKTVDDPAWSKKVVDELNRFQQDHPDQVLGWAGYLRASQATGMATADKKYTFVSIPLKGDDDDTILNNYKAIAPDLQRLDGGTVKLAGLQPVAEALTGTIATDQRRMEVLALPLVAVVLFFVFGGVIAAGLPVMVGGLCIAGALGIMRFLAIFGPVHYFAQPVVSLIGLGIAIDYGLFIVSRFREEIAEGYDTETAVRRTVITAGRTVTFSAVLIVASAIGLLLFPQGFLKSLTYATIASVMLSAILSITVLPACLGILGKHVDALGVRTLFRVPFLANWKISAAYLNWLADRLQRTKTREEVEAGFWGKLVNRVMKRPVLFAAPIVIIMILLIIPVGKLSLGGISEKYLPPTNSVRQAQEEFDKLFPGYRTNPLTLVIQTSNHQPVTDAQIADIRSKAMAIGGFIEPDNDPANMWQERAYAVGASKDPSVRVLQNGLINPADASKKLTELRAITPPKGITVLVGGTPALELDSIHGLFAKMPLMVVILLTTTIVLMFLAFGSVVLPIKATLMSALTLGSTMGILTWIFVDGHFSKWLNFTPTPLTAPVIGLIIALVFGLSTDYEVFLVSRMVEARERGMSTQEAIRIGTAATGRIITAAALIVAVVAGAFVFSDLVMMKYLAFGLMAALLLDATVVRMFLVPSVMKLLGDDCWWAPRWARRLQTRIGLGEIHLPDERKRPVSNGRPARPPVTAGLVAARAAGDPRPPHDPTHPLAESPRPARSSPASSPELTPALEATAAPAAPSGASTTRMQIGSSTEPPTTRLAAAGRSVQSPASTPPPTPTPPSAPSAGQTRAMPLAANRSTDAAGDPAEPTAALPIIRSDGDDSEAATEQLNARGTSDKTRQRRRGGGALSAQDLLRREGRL
READOUT NAME: ka2 (s⁻¹)
Give the value in s⁻¹ but do not write s⁻¹ after it.

Example cases with answers are listed next.
CCCCCCC1(NCCNCC=C(C)CCC=C(C)C)C2CC3CC(C2)CC1C3 (stereo not drawn) [Compound 8f] : 0.008637
CCC1(NCCNCC=C(C)CCC=C(C)C)C2CC3CC(C2)CC1C3 (stereo not drawn) [Compound 8c] : 0.006994
CC(C)=CCC/C(C)=C/CNCCNC1C2CC3CC(C2)CC1C3 (stereo not drawn) [Compound 8a, reference compound] : 0.005315

// ka2 value for CC(C)=CCCC(C)=CCNC(=O)CNC1(C)C2CC3CC(C2)CC1C3 (stereo not drawn) [Compound 14b] : 0.009268

// ka2 value for CCCC1(NCCNCC=C(C)CCC=C(C)C)C2CC3CC(C2)CC1C3 (stereo not drawn) [Compound 8d] : 0.00968

// ka2 value for CCCCC1(NCCNCC=C(C)CCC=C(C)C)C2CC3CC(C2)CC1C3 (stereo not drawn) [Compound 8e] : 0.009897

// ka2 value for CC(C)=CCCC(C)=CCNCCNC1(Cc2ccccc2)C2CC3CC(C2)CC1C3 (stereo not drawn) [Compound 8g] : 0.006528

// ka2 value for CC(C)=CCCC(C)=CCNCCNC1(c2ccccc2)C2CC3CC(C2)CC1C3 (stereo not drawn) [Compound 8h] : 0.00526

// ka2 value for CC(C)=CCCC(C)=CCNCCNC1(c2ncc(-c3ccccc3)s2)C2CC3CC(C2)CC1C3 (stereo not drawn) [Compound 8i] : 0.006253

----------
molecular target: M. tuberculosis MmpL3 (MtMmpL3) (Mycobacterium tuberculosis, UniProt P9WJV5); test: Surface plasmon resonance binding to MmpL3; conditions: read-out: KD, 2-state; two-state model; from rate constants
READOUT NAME: pKd
By convention, pKd is the negative base-10 log of a molar concentration.

CC(C)=CCCC(C)=CCNCCNC1(C)C2CC3CC(C2)CC1C3 (stereo not shown) : 3.61

// pKd value for CC(C)=CCCC(C)=CCNCCNC1(c2ccccc2)C2CC3CC(C2)CC1C3 (stereo not shown) : 3.87

// pKd value for CCCC1(NCCNCC=C(C)CCC=C(C)C)C2CC3CC(C2)CC1C3 (stereo not shown) : 3.97

// pKd value for CCCCC1(NCCNCC=C(C)CCC=C(C)C)C2CC3CC(C2)CC1C3 (stereo not shown) : 3.97

----------
This listing pairs compounds with measured ΔH.
assay: DSC of DMPC bilayers with inhibitor; format: physicochemical; settings: 10 wt % inhibitor, PBS pH 7.4, heating
Give the value in kcal/mol but do not write kcal/mol after it.

CCCCCCC1(NCCNCC=C(C)CCC=C(C)C)C2CC3CC(C2)CC1C3 (stereo not drawn) [Compound 8f] : 5.88

// ΔH value for CC(C)=CCCC(C)=CCNCCNC1(C)C2CC3CC(C2)CC1C3 (stereo not drawn) [Compound 8b] : 6.12

// ΔH value for CCCCC1(NCCNCC=C(C)CCC=C(C)C)C2CC3CC(C2)CC1C3 (stereo not drawn) [Compound 8e] : 5.83

----------
test: DSC of DSPG bilayers with inhibitor; format: physicochemical; settings: 10 wt % inhibitor, PBS pH 7.4, heating
This listing pairs compounds with measured Tm (main transition).
Give the value in °C but do not write °C after it.

CC(C)=CCC/C(C)=C/CNCCNC1C2CC3CC(C2)CC1C3 (stereo not shown) [Compound 8a, reference compound] : 50.4

// Tm (main transition) value for CC(C)=CCCC(C)=CCNCCNC1(c2ccccc2)C2CC3CC(C2)CC1C3 (stereo not shown) [Compound 8h] : 48.6

// Tm (main transition) value for CCCCC1(NCCNCC=C(C)CCC=C(C)C)C2CC3CC(C2)CC1C3 (stereo not shown) [Compound 8e] : 49.0

// Tm (main transition) value for CCCCCCC1(NCCNCC=C(C)CCC=C(C)C)C2CC3CC(C2)CC1C3 (stereo not shown) [Compound 8f] : 49.1

----------
biological target: M. tuberculosis MmpL3 (MtMmpL3) (Mycobacterium tuberculosis, UniProt P9WJV5); assay: Surface plasmon resonance binding to MmpL3; conditions: two-state model
This listing pairs compounds with measured ka2.
Give the value in s⁻¹ but do not write s⁻¹ after it.

Example cases with answers are listed next.
CC(C)=CCCC(C)=CCNCCNC(C)(C)C12CC3CC(CC(C3)C1)C2 : 0.007539
CC(C)=CCCC(C)=CCNCCNC1(C)C2CC3CC(C2)CC1C3 (stereo not drawn) : 0.01084

Turning now to a further record.
// ka2 value for CCCC1(NCC(=O)NCC=C(C)CCC=C(C)C)C2CC3CC(C2)CC1C3 (stereo not drawn) [Compound 14d] : 0.005907
